// provenance: patent US20210139581A1

molecular target: human CD33 on primary human monocyte-derived dendritic cells (human, UniProt P20138 18-364); experiment: cell-based or functional assay
Sequence (P20138 18-364): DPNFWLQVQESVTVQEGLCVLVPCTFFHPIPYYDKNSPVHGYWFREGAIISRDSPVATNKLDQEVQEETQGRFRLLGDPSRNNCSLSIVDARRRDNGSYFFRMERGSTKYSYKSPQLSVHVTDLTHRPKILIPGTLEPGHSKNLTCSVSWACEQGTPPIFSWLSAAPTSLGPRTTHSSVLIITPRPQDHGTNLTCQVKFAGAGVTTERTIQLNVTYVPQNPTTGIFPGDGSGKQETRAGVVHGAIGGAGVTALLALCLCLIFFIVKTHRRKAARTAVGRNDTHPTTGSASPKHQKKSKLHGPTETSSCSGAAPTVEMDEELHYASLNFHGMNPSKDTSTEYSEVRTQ
Reported Maximal Downregulation (% CD33 remaining) by item:

Previously resolved entries follow.
binder	result
AB-63.4 (antibody, V domains shown) VH: QVQLVQSGAEVKKPGASVKVSCKASGYTFTDYNYHWVRQAPGQGLEWIGFIYPSNGITGYAQKFQGRVTMTVDTSTSTVYMELSSLRSEDTAVYYCARSTVDYFDYWGQGTLVTVSS VL: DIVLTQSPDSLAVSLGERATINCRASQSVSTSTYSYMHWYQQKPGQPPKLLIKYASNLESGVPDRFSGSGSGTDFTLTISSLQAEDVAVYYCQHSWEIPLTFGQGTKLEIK	17.6%
AB-63.18 (antibody, V domains shown) VH: QVQLVQSGAEVKKPGSSVKVSCKASGYTHTDYNLHWVRQAPGQGLEWIGFIYPSNGITGYAQKFQGRVTMTVDTSTSTVYMELSSLRSEDTAVYYCARSDVDYFDYWGQGTLVTVSS VL: DIVLTQSPDSLAVSLGERATINCRASQSVSTSTYSYMHWYQQKPGQPPKLLIKYESNLESGVPDRFSGSGSGTDFTLTISSLQAEDVAVYYCQHSWEIPLTFGQGTKLEIK	26.8%
AB-63.12 (antibody, V domains shown) VH: QVQLVQSGAEVKKPGASVKVSCKASGYTFTDYNFHWVRQAPGQGLEWIGFIYPSNGITGYAQKFTGRVTMTVDTSTSTVYMELSSLRSEDTAVYYCARSTVDYFDDWGQGTLVTVSS VL: DIVLTQSPDSLAVSLGERATINCRASQDVSTSTYSYMHWYQQKPGQPPKLLIKYASNVESGVPDRFSGSGSGTDFTLTISSLQAEDVAVYYCQHSWAIPLTFGQGTKLEIK	27.5%
AB-63.11 (antibody, V domains shown) VH: QVQLVQSGAEVKKPGASVKVSCKASGYTFTDYNFHWVRQAPGQGLEWIGFIYPANGITGYAQKDQGRVTMTVDTSTSTVYMELSSLRSEDTAVYYCARSDVDYFDYWGQGTLVTVSS VL: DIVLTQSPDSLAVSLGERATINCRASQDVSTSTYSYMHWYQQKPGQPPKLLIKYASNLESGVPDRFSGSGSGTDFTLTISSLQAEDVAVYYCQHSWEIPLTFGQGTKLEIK	23%
AB-63.10 (antibody, V domains shown) VH: QVQLVQSGAEVKKPGASVKVSCKASGYTETDYNLHWVRQAPGQGLEWIGFIYPSNGITGYAQKFQGRVTMTVDTSTSTVYMELSSLRSEDTAVYYCARSDVDYFDYWGQGTLVTVSS VL: DIVLTQSPDSLAVSLGERATINCRASQDVSTSTYSYMHWYQQKPGQPPKLLIKYASNLESGVPDRFSGSGSGTDFTLTISSLQAEDVAVYYCQHSWELPLTFGQGTKLEIK	21.2%

Briefly, Maximal Downregulation (% CD33 remaining) measured for AB-63.17 (antibody, V domains shown) VH: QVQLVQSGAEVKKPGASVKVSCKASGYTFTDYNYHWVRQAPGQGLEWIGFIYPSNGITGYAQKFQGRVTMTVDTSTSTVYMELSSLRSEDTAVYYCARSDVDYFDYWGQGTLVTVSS VL: DIVLTQSPDSLAVSLGERATINCRGSQSVSTSTYSYMHWYQQKPGQPPKLLIKYESNLESGVPDRFSGSGSGTDFTLTISSLQAEDVAVYYCQHSWEIPLTFGQGTKLEIK : 27.2%

Briefly, Maximal Downregulation (% CD33 remaining) measured for AB-63.15 (antibody, V domains shown) VH: QVQLVQSGAEVKKPGASVKVSCKASGYTFTDYNYHWVRQAPGQGLEWIGFIYPSNGITGYAQKFQGRVTMTVDTSTSTVYMELSSLRSEDTAVYYCARSDVDYFDLWGQGTLVTVSS VL: DIVLTQSPDSLAVSLGERATINCRASQDVSTSTYSYMHWYQQKPGQPPKLLIKYASNVESGVPDRFSGSGSGTDFTLTISSLQAEDVAVYYCQHSWEIPLTFGQGTKLEIE : 27.5%

Briefly, Maximal Downregulation (% CD33 remaining) measured for AB-63.7 (antibody, V domains shown) VH: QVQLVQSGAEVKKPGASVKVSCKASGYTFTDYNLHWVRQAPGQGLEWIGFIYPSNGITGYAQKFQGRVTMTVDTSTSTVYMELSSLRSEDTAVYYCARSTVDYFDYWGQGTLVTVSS VL: DIVLTQSPDSLAVSLGERATINCRASQDVSTSTYSYMHWYQQKPGQPPKLLIKYAFNLESGVPDRFSGSGSGTDFTLTISSLQAEDVAVYYCQHSWEIPLEFGQGTKLEIK : 18.4%

Briefly, Maximal Downregulation (% CD33 remaining) measured for AB-H63 (antibody, V domains shown, Humanized variant of murine 2F5.1) VH: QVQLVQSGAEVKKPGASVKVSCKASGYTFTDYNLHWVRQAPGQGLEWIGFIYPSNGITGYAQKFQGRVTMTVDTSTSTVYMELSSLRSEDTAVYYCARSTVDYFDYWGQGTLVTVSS VL: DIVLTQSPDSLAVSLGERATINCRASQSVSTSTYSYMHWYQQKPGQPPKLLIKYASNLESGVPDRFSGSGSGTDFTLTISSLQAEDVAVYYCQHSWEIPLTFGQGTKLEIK : 16.1%

Briefly, Maximal Downregulation (% CD33 remaining) measured for AB-63.9 (antibody, V domains shown) VH: QVQLVQSGAEVKKPGASVKVSCKASGYAFTDYNLHWVRQAPGQGLEWIGFIYPSNGITGYAQKFQGRVTMTVDTSTSTVYMELSSLRSEDTAVYYCARSDVDYFDYWGQGTLVTVSS VL: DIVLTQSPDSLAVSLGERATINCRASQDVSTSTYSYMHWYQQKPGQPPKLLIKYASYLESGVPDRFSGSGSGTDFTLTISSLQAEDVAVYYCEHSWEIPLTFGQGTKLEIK : 20.1%

Briefly, Maximal Downregulation (% CD33 remaining) measured for AB-63.6 (antibody, V domains shown) VH: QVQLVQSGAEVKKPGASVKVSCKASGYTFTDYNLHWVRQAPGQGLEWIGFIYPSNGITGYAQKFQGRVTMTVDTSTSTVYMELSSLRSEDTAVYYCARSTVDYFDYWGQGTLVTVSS VL: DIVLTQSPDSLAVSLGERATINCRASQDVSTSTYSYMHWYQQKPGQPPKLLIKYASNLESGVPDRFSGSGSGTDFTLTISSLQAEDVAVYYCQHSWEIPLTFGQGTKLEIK : 17.1%
